assay: Clearance in Sprague-Dawley rat plasma at 0.5 mg/kg, iv by LC-MS/MS analysis; type: ADME, organism-based; parameters: dose 0.5 mg/kg, route intravenous
endpoint_name: clearance (mL/min/kg)
Numbers only; they are read as mL/min/kg.

Lookup result for O=C1CC(c2c(Cl)cccc2Cl)CC(O)=C1Sc1ccccc1Cl (stereo unspecified) ; measured clearance: 0.35

---

assay: Half life in Sprague-Dawley rat plasma at 2 mg/kg, po; type: ADME, organism-based; parameters: dose 2 mg/kg, route oral
endpoint_name: half-life (h)
Numbers only; they are read as h.

Lookup result for O=C1CC(c2c(Cl)cccc2Cl)CC(O)=C1Sc1ccccc1Cl (stereo unspecified) ; measured half-life: 10.7
